Data provenance is patent EP4537832A1.

Assay: Safety evaluation (body weight changes) in pancreatic cancer PA1383 model
Assay type: in vivo, Balb/nude female mice
Conditions: 60 mg/kg i.p. QD×5/week×2 weeks; Day 3
value type: Body weights (g)
Provide only the numeric value, understood in g.

Endpoint output: Body weights of O=P1(NCCCl)OCCCN1CCCl (stereo not shown) [Ifosfamide, reference compound] . Value? 22.2

====

Assay: Safety evaluation (body weight changes) in pancreatic cancer PA1383 model
Type: in vivo, Balb/nude female mice
Conditions: 1 mg/kg i.v. QD×5, 2 days off, 2 weeks off, QD×5; Day 24
value type: Body weights (g)
Provide only the numeric value, understood in g.

Endpoint output: Body weights of `C[C@@H](OP(=O)(N1CC1)N1CC1)c1ccc([N+](=O)[O-])c(Oc2cccc(C(=O)N(C)C)c2)c1` . Value? 24.1
